tested on: PPARg:RXRa (NR concentration 180 nM, RXRa partner concentration 90 nM); test: PBM binding z-score (relative to random genomic background probes); higher = stronger binding; sequences stand for … in GC…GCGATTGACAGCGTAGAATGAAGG
Rule: True for PBM binding z-score not less than 0.6, False for anything less.

Check if PBM binding z-score >= 0.6 (inclusive). Item: `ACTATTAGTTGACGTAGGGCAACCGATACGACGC` True

Check if PBM binding z-score >= 0.6 (inclusive). Item: `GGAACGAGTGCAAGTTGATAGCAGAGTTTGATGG` False

Check if PBM binding z-score >= 0.6 (inclusive). Item: `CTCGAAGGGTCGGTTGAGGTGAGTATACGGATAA` False

Check if PBM binding z-score >= 0.6 (inclusive). Item: `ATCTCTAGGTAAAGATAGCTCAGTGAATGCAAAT` False

Check if PBM binding z-score >= 0.6 (inclusive). Item: `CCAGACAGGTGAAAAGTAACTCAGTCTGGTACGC` True

Check if PBM binding z-score >= 0.6 (inclusive). Item: `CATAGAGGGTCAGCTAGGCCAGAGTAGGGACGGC` True

Check if PBM binding z-score >= 0.6 (inclusive). Item: `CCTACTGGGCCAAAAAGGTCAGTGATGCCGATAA` True

Check if PBM binding z-score >= 0.6 (inclusive). Item: `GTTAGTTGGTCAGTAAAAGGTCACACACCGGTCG` True

Check if PBM binding z-score >= 0.6 (inclusive). Item: `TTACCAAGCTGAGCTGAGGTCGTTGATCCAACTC` False

Check if PBM binding z-score >= 0.6 (inclusive). Item: `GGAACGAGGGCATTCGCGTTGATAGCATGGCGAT` True

Check if PBM binding z-score >= 0.6 (inclusive). Item: `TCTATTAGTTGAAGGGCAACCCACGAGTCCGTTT` False

Check if PBM binding z-score >= 0.6 (inclusive). Item: `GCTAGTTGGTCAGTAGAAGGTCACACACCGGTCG` True

Check if PBM binding z-score >= 0.6 (inclusive). Item: `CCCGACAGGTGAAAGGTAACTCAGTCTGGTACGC` True

Check if PBM binding z-score >= 0.6 (inclusive). Item: `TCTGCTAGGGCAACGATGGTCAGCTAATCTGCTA` False

Check if PBM binding z-score >= 0.6 (inclusive). Item: `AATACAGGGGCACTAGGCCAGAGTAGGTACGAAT` True

Check if PBM binding z-score >= 0.6 (inclusive). Item: `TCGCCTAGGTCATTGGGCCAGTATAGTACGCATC` True

Check if PBM binding z-score >= 0.6 (inclusive). Item: `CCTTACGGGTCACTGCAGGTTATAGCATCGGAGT` True

Check if PBM binding z-score >= 0.6 (inclusive). Item: `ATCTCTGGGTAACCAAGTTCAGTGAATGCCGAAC` False

Check if PBM binding z-score >= 0.6 (inclusive). Item: `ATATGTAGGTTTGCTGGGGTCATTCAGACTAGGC` True

Check if PBM binding z-score >= 0.6 (inclusive). Item: `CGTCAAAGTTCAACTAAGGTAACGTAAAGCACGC` True

Check if PBM binding z-score >= 0.6 (inclusive). Item: `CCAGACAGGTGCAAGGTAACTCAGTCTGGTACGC` False

Check if PBM binding z-score >= 0.6 (inclusive). Item: `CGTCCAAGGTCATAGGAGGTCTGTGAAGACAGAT` True

Check if PBM binding z-score >= 0.6 (inclusive). Item: `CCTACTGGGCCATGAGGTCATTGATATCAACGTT` True

Check if PBM binding z-score >= 0.6 (inclusive). Item: `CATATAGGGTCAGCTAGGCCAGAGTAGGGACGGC` True

Check if PBM binding z-score >= 0.6 (inclusive). Item: `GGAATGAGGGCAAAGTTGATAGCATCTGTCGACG` True

Check if PBM binding z-score >= 0.6 (inclusive). Item: `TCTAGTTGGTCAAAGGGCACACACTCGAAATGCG` True

Check if PBM binding z-score >= 0.6 (inclusive). Item: `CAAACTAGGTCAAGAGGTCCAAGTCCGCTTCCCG` True

Check if PBM binding z-score >= 0.6 (inclusive). Item: `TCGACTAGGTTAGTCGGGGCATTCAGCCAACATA` False

Check if PBM binding z-score >= 0.6 (inclusive). Item: `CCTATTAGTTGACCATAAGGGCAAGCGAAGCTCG` False

Check if PBM binding z-score >= 0.6 (inclusive). Item: `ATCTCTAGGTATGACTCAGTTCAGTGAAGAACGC` False

Check if PBM binding z-score >= 0.6 (inclusive). Item: `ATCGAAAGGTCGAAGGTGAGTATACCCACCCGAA` True

Check if PBM binding z-score >= 0.6 (inclusive). Item: `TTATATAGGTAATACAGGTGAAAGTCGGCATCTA` True

Check if PBM binding z-score >= 0.6 (inclusive). Item: `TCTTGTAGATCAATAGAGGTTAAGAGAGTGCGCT` False

Check if PBM binding z-score >= 0.6 (inclusive). Item: `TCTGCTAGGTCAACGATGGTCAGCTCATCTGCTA` True

Check if PBM binding z-score >= 0.6 (inclusive). Item: `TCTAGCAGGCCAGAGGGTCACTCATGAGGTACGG` True

Check if PBM binding z-score >= 0.6 (inclusive). Item: `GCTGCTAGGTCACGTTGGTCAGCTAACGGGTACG` True

Check if PBM binding z-score >= 0.6 (inclusive). Item: `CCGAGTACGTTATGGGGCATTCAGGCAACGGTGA` False

Check if PBM binding z-score >= 0.6 (inclusive). Item: `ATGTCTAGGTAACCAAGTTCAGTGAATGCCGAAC` True

Check if PBM binding z-score >= 0.6 (inclusive). Item: `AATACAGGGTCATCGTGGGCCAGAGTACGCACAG` True

Check if PBM binding z-score >= 0.6 (inclusive). Item: `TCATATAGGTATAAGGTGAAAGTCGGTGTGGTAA` True

Check if PBM binding z-score >= 0.6 (inclusive). Item: `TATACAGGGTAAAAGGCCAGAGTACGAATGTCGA` True

Check if PBM binding z-score >= 0.6 (inclusive). Item: `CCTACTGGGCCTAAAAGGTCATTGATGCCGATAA` True

Check if PBM binding z-score >= 0.6 (inclusive). Item: `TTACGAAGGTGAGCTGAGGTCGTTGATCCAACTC` False

Check if PBM binding z-score >= 0.6 (inclusive). Item: `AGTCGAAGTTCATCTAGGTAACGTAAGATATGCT` True

Check if PBM binding z-score >= 0.6 (inclusive). Item: `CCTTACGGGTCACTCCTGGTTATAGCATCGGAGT` True

Check if PBM binding z-score >= 0.6 (inclusive). Item: `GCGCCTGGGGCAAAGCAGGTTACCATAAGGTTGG` False

Check if PBM binding z-score >= 0.6 (inclusive). Item: `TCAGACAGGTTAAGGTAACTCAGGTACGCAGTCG` True

Check if PBM binding z-score >= 0.6 (inclusive). Item: `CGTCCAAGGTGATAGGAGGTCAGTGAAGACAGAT` True

Check if PBM binding z-score >= 0.6 (inclusive). Item: `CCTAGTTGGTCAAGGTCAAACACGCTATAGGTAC` True

Check if PBM binding z-score >= 0.6 (inclusive). Item: `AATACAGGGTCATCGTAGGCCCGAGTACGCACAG` True
